assay: recombinant UMI read abundance after kanamycin selection (control-corrected) (log10(CPM+1)); higher = more efficient recombination; extreme values may be limits of the assay; sequences stand for … in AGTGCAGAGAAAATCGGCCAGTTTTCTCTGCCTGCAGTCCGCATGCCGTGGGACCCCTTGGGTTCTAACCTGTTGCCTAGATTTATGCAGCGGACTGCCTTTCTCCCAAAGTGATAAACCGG…AGGTTGGTTTCACT; site = the 11-nt donor;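 further: IS621 bridge recombinase in Escherichia coli cells against a fixed T5 target plasmid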
Reported Metric: recombinant UMI read abundance (log10)

> print(dat)
                      macromolecule.sequence  numeric.result
 1  TAGCTAGCATGGACCGGTTTTCCCGGTAATCCGTATTTGGA (site TAGCTAGCTTC)           0.303
 2  GTATTCACATGGACCGGTTTTCCCGGTAATCCGTATTTGTA (site GTATTCACTTA)            2.35
 3  GCTTGGACATGGACCGGTTTTCCCGGTAATCCGTATTTGAC (site GGTTGGACTGT)           0.132
 4  GCCAAGCCATGGACCGGTTTTCCCGGTAATCCGTATTTGTA (site GCCAGGCCTTA)         0.00969
 5  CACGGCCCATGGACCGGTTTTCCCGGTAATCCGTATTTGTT (site CACGGCACTAA)          0.0172
 6  ACAATATCATGGACCGGTTTTCCCGGTAATCCGTATTTGGA (site ACAGTATCTTG)               0
 7  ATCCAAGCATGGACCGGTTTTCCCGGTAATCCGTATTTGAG (site ATCCAAGCTGT)               0
 8  CAGTCGACATGGACCGGTTTTCCCGGTAATCCGTATTTGTG (site CAGTCGACTCT)         0.00896
 9  AGAAAGTCATGGACCGGTTTTCCCGGTAATCCGTATTTGCA (site AGAAAGTCTTG)            2.65
10  AACGTGTCATGGACCGGTTTTCCCGGTAATCCGTATTTGTT (site AACGTGTCTAA)            2.59
11  ATTGAAACATGGACCGGTTTTCCCGGTAATCCGTATTTGGT (site ATTGAGACTAC)           0.484
12  CGGACATCATGGACCGGTTTTCCCGGTAATCCGTATTTGCG (site CGGACATCTTG)         0.00626
13  CCTCATACATGGACCGGTTTTCCCGGTAATCCGTATTTGGC (site CCTAATACTGC)               0
14  GGAACTTCATGGACCGGTTTTCCCGGTAATCCGTATTTGGC (site GGAACTTCTGC)            1.94
15  AAGGTTGCATGGACCGGTTTTCCCGGTAATCCGTATTTGCA (site AAGGTTGCTTG)            2.22
16  AATGTGCCATGGACCGGTTTTCCCGGTAATCCGTATTTGAC (site AATGTGTCTGT)               0
17  CAGCCTTCATGGACCGGTTTTCCCGGTAATCCGTATTTGGT (site AAGCCTTCTAC)               0
18  AAGCACGCATGGACCGGTTTTCCCGGTAATCCGTATTTGCG (site AAGCACGCTCG)            1.44
